Recorded RP-LC retention time for the following compounds
test: gradient 5% acetonitrile 3 min, to 50% in 2 min, to 85% in 15 min, held 3 min, 100 µL/min; conditions: column: Zorbax Extend-C18 2.1 x 50 mm; eluents: water / acetonitrile, 0.1% formic acid
Just the number in s, nothing appended.

Known results for compounds:
Smiles: O=C(c1ccc(Br)o1)N1CCN(c2ccc(=O)n(-c3cccc(Cl)c3)n2)CC1
RP-LC retention time [s]: 878

Smiles: Fc1ccc(F)c(-c2nc(-c3cccc(-c4ccn[nH]4)c3)no2)c1
RP-LC retention time [s]: 966

Smiles: CN1C(=O)COc2ccc(-c3csc(NC(=O)c4cccnc4)n3)cc21
RP-LC retention time [s]: 733

Smiles: CC(C)C(=O)Nc1cc2c(cc1N(C)C)n(C)c(=O)c(=O)n2C
RP-LC retention time [s]: 631

Smiles: Cc1cc(NC(=O)Cc2csc(NC(=O)c3ncccn3)n2)no1
RP-LC retention time [s]: 591

Smiles: Cc1nc(-c2csc(S(=O)(=O)N3CCC(C(=O)N4CCCCC4)CC3)c2)no1
RP-LC retention time [s]: 818

Query :: Report RP-LC retention time, nothing else, for this compound: `COC(=O)CNC(=O)N1CCCN(c2nc3cc(F)ccc3n3cccc23)CC1`
Result :: 612

Query :: Report RP-LC retention time, nothing else, for this compound: `COCCN1C(=O)CCc2cc(NC(=O)COc3cccc(C)c3)ccc21`
Result :: 799
